tested on: cultured human mast cells; experiment: Degranulation inhibition test using cultured human mast cells (IgE cross-linking, β-Hexosaminidase release); assay type: cell-based; conditions: Mast cell; Tables 1-x, compounds A; cultured human mast cells; read-out: human degranulation ave. IC50
MEASURED QUANTITY: IC50

// worked examples, IC50 included
Cc1ccnc(Nc2cccc(-c3cnc(N4CCN(C(=O)OC(C)(C)C)CC4)s3)n2)c1: > 1000 nM
Cc1ccnc(Nc2cccc(-c3cnc(N4CCC(CNC(=O)CO)CC4)s3)n2)c1: 100 to 1000 nM
CCC(=O)N1CCN(c2ncc(-c3cccc(Nc4cc(C)ccn4)n3)s2)CC1: 100 to 1000 nM

// Input: Cc1ccnc(Nc2cccc(-c3cnc([C@@H]4COC(=O)N4CC(=O)N4C[C@@H](O)[C@@H](O)C4)s3)n2)c1 . Output its IC50 only.
> 1000 nM

// fetch IC50 given entry CC1(c2ccnc(Nc3cccc(-c4cnc(N5CCC[C@@H](C(N)=O)C5)s4)n3)c2)OCCO1
100 to 1000 nM
